Test system: P12-Ichikawa
assay.method.text: cell viability relative to DMSO control; higher = less cytotoxic
settings: RPMI 5 mM glucose + 10% dialyzed FBS; 48 h; 46.1 µM
measured.endpoint: cell viability (%)

> print(dat)
                                    compound  assay.result
 1  OC(=O)\C1=C\N(C2=CC=C(F)C=C2)C3=C(C=C(F)C(=C3)N4CCNCC4)C1=O          87.2
 2  CC(=O)N1CCN(c2ccc(OC[C@H]3CO[C@](Cn4ccnc4)(c4ccc(Cl)cc4Cl)O3)cc2)CC1          68.2
 3             C\C1=C\C(=O)C2=C(C=CC=C2)C1=O           128
 4  CC(C)Nc1cc(C(F)(F)F)cc2nc(NC(=O)c3cccnc3)nn12            37
 5  C1CCC(C(CC2CCCCN2)C2CCCCC2)CC1 (stereo not drawn)          67.7
 6  C[C@@H]1CN[C@H]2[C@@H](C)[C@@]\3(CC[C@H]\4[C@@H]5C/C=C6/C[C@@H](O)CC[C@]6(C)[C@H]5CC4=C3C)O[C@@H]2C1          93.1
 7  Cc1nccn1CC1CCc2c(c3ccccc3n2C)C1=O (stereo not drawn)           105
 8  O=C(Nc1cccc(Nc2ncc(Br)c(NCCc3cnc[nH]3)n2)c1)N1CCCC1          9.06
 9              N=C(N)NC(=O)c1nc(Cl)c(N)nc1N          17.5
10  CC1(C)OC2CC3C4CC(F)C/5=C/C(=O)/C=C\C5(C)C4C(O)CC3(C)[C@@]2(O1)C(=O)CO (stereo partly drawn)            49
11  NC(CO)(CO)CCc1ccc(Sc2cccc(OCc3ccccc3)c2)cc1Cl          5.62
12            Oc1ccc(/C=C/c2cc(O)cc(O)c2)cc1          36.9
13  CC(C)(C)C(=O)OCOP(=O)(COCCn1cnc2c(N)ncnc21)OCOC(=O)C(C)(C)C          27.4
14      OCc1ccc(-c2nn(Cc3ccccc3)c3ccccc23)o1          49.5
15  CN(C)CCc1c[nH]c2ccc(C[C@H]3COC(=O)N3)cc12          7.95
16  C=CC1=C(C(=O)O)N2C(=O)[C@@H](NC(=O)/C(=N\O)c3csc(N)n3)[C@H]2SC1           125
17  O=C1C[C@@H](c2ccc(O)cc2)Oc2cc(O)cc(O)c21           103
18  c1cc(CN2CCCNCCNCCCNCC2)ccc1CN1CCCNCCNCCCNCC1           103

====

Tested on: SEM cells
assay.method.text: cell viability relative to DMSO control; higher = less cytotoxic
settings: HPLM + 10% dialyzed FBS; 48 h; 0.0632 µM
Entries and their cell viability
measured.endpoint: cell viability (%)

> print(dat)
                                    compound  experimental.system  assay.result
 1  ClC1=CC(=CC=C1)N2CCN(CCCN3\N=C4\C=C/C=C\N4C3=O)CC2            SEM cells           121
 2  CCC1(c2ccc(N)cc2)CCC(=O)NC1=O (centres undefined)            SEM cells           118
 3  CC1(C)OC2CC3C4CC(F)C/5=C/C(=O)/C=C\C5(C)C4C(O)CC3(C)[C@@]2(O1)C(=O)CO (some centres undefined)            SEM cells          94.6
 4  C[N+]1(C)[C@@H]2C[C@@H](OC(=O)[C@H](CO)c3ccccc3)C[C@H]1[C@@H]1O[C@@H]12.[Br-]            SEM cells           105
 5  CC1=C(C=CC=C1)N2\C(=N/C3=C(C(=CC=C3)C)C2=O)C[N]4N=CC5=C4N=CN=C5N            SEM cells           124
 6        CC(C)(C)c1cc(C=C(C#N)C#N)cc(Br)c1O            SEM cells           111
 7  Cc1cccc(C)c1OCC(=O)N[C@@H](Cc1ccccc1)[C@@H](O)C[C@H](Cc1ccccc1)NC(=O)[C@H](C(C)C)N1CCCNC1=O            SEM cells           100
 8  NC(CO)(CO)CCc1ccc(Sc2cccc(OCc3ccccc3)c2)cc1Cl            SEM cells          99.1
 9  CC(C)Nc1cc(-c2c[nH]c(C(=O)N[C@H](CO)c3cccc(Cl)c3)c2)c(Cl)cn1            SEM cells           141
10  CC1(C)C(=O)N(CCN2CCC(C(=O)c3ccc(F)cc3)CC2)c2ccccc21            SEM cells           119
11  C[C@@H]1CN[C@H]2[C@@H](C)[C@@]\3(CC[C@H]\4[C@@H]5C/C=C6/C[C@@H](O)CC[C@]6(C)[C@H]5CC4=C3C)O[C@@H]2C1            SEM cells           129
12  Cn1c(Nc2ccc(C(F)(F)F)cc2)nc2cc(Oc3ccnc(-c4nc(C(F)(F)F)c[nH]4)c3)ccc21            SEM cells           127
13  COc1cc(Nc2ncc(F)c(Nc3ccc4c(n3)NC(=O)C(C)(C)O4)n2)cc(OC)c1OC            SEM cells           106
14  CCOC(=O)[C@H](CCc1ccccc1)N[C@@H](C)C(=O)N1CCC[C@H]1C(=O)O            SEM cells           119
15            Oc1ccc(/C=C/c2cc(O)cc(O)c2)cc1            SEM cells           115
16  CCOC(=O)N1CCN(/[N+]([O-])=N/Oc2ccc([N+](=O)[O-])cc2[N+](=O)[O-])CC1            SEM cells            76
17  CC(=O)N1CCN(c2ccc(OC[C@H]3CO[C@](Cn4ccnc4)(c4ccc(Cl)cc4Cl)O3)cc2)CC1            SEM cells           107
18                [NH2][Pt]([NH2])([Cl])[Cl]            SEM cells           107
19  CN1\C(=C(\O)C2=C(C=CS2)[S+]1([O-])=O)C(=O)NC3=CC=CC=N3            SEM cells           114

====

Tested on: P12-Ichikawa
assay.method.text: cell viability relative to DMSO control; higher = less cytotoxic
settings: RPMI 5 mM glucose + 10% FBS; 48 h; 15.4 µM
measured.endpoint: cell viability (%)

compound	assay.result
Cc1cc(Nc2nc(N[C@@H](C)c3ncc(F)cn3)ncc2Cl)n[nH]1	98
C\C1=C\C(=O)C2=C(C=CC=C2)C1=O	139
CCOc1cc(N)c(Cl)cc1C(=O)NCC1CN(Cc2ccc(F)cc2)CCO1 (stereo not given)	119
C[S+](=O)([O-])N(Cc1ccco1)CC(O)Cn1c2ccccc2c2ccccc21 (stereo not given)	79.2
CC(C)Oc1cc(Nc2nc(N[C@@H](C)c3ccc(F)cn3)ncc2Cl)n[nH]1	27.5
O=C(CO)N1CCC(c2n[nH]c(-c3ccc(Cl)cc3)c2-c2ccncn2)CC1	24
CC(=O)OCC(=O)[C@@]12\N=C(C)/O[C@@H]1C[C@H]3[C@@H]4CCC/5=C/C(=O)/C=C\[C@]5(C)[C@H]4[C@@H](O)C[C@]23C	62.8
O=C(NC[C@H](O)CN1CCc2ccccc2C1)c1cc(NC2COC2)ncn1	76.4
CC(C)[C@@H](C[S+](=O)([O-])C(C)C)N1C(=O)[C@@](C)(CC(=O)O)C[C@H](c2cccc(Cl)c2)[C@H]1c1ccc(Cl)cc1	11.7
Oc1ccc(/C=C/c2cc(O)cc(O)c2)cc1	101
CCN(CC)CCCCNc1nc2cc(Cl)c(Cl)cc2nc1-c1ccc(-c2cccs2)s1	114
CC(=O)NC(CS)C(=O)O (stereo not given)	28.6
Cn1cc(-c2ccc3nnc(C(F)(F)c4ccc5ncccc5c4)n3n2)cn1	101
CC[C@H]1/C=C\C=C/C[C@@H](C)[C@H](O)[C@@](C)(O)C(=O)[C@@H](C)[C@H](O)[C@@H](C)C(=O)[C@@H](C)[C@H](O)[C@@H](C)/C=C/C(=O)O[C@@H]2[C@H](C)[C@H](CC1)O[C@]1(CC[C@H](C)[C@H](C[C@@H](C)O)O1)[C@H]2C	53.7
CN(C)CCc1c[nH]c2ccc(C[C@H]3COC(=O)N3)cc12	36.2

Source: the supplement of paper PMC11451515
